Origin of values: patent US20250188085A1

# measured-target: Avi-KRAS G12C (1-169) GppNHp/RAF1 RBD-3×FLAG (52-151) (Homo sapiens, UniProt P01116, G12C)
# Construct: Avi-KRAS G12C (1-169) GppNHp/RAF1 RBD-3×FLAG (52-151)
# Sequence (P01116 1-169 isoform P01116-2 G12C limits assumed): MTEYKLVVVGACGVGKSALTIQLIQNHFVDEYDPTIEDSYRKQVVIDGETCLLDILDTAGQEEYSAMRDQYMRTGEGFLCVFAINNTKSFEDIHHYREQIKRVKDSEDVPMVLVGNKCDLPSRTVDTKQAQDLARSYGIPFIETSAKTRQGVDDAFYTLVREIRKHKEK
# test: Raf1 RBD-KRAS G12C-GppNHp disruption (protein:protein interaction HTRF assay)
reported-metric: IC50

Example entries begin here.
{"compound": "C=CC(=O)N1CC[C@@H](Oc2nc(OC[C@@]34CCCN3C[C@H](F)C4)nc3c(Cl)c(-c4ccc(F)c5sc(N)nc45)c(C(F)(F)F)cc23)C1 (atropisomer, axis not shown)", "IC50": "≤ 0.5 µM"}
{"compound": "C=CC(=O)N1CC[C@@H](Oc2nc(OC[C@@]34CCCN3C[C@H](F)C4)nc3c(F)c(-c4ccc(F)c5sc(N)c(C#N)c45)c(C(F)(F)F)cc23)[C@@H]1C", "IC50": "≤ 0.5 µM"}
{"compound": "C=CC(=O)N1CC(Oc2nc(OC[C@@H]3C[C@@H](OC)CN3C)nc3c(F)c(-c4ccc(F)c5sc(N)nc45)c(C(F)(F)F)cc23)C1", "IC50": "0.5 to 5 µM"}
{"compound": "C=CC(=O)N1CC[C@@H](Oc2nc(OC[C@@]34CCCN3C[C@H](F)C4)nc3c(F)c(-c4ccc(F)c5oc(N)nc45)c(C(F)(F)F)cc23)C1", "IC50": "≤ 0.5 µM"}
{"compound": "C=CC(=O)N1CC[C@@H](Oc2nc(OC[C@@]34CCCN3C[C@H](F)C4)nc3c(F)c(-c4ccc(F)c5sc(N)c(C#N)c45)ccc23)[C@H]1CC", "IC50": "≤ 0.5 µM"}

# assay system Avi-KRAS G12C (1-169) GppNHp/RAF1 RBD-3×FLAG (52-151) (Homo sapiens, UniProt P01116, G12C): give IC50 of C=CC(=O)N1CC[C@@H](Oc2nc(OC[C@@H]3CCCN3C)nc3c(F)c(-c4ccc(F)c5sc(N)nc45)c(C(F)(F)F)cc23)C1
≤ 0.5 µM

Give reported IC50 for C=CC(=O)N1CC[C@@H](Oc2nc(OC[C@@]34CCCN3C[C@H](F)C4)nc3c(F)c(-c4ccc(F)c5sc(N)c(C#N)c45)c(C(F)(F)F)cc23)[C@H]1CF (Avi-KRAS G12C (1-169) GppNHp/RAF1 RBD-3×FLAG (52-151) (Homo sapiens, UniProt P01116, G12C))
≤ 0.5 µM

Find IC50 for C=CC(=O)N1CC[C@@H](Oc2nc(OC[C@@]34CCCN3C[C@H](F)C4)nc3c(F)c(-c4ccc(F)c5sc(N)c(C#N)c45)c(C(F)(F)F)cc23)[C@H]1CO on Avi-KRAS G12C (1-169) GppNHp/RAF1 RBD-3×FLAG (52-151) (Homo sapiens, UniProt P01116, G12C) and write it down.
≤ 0.5 µM

Please respond with reported IC50 (system Avi-KRAS G12C (1-169) GppNHp/RAF1 RBD-3×FLAG (52-151) (Homo sapiens, UniProt P01116, G12C)) for C=CC(=O)N1CC[C@@H](Oc2nc(OC[C@@H]3CC4(CC4)CN3C)nc3c(F)c(-c4ccc(F)c5sc(N)nc45)c(C(F)(F)F)cc23)C1 (atropisomer, axis not shown) [Compound 25] .
5 to 20 µM

Please indicate recorded IC50 of C=CC(=O)N1CC[C@@H](Oc2nc(OC[C@]34CCCN3C[C@H](OC)C4)nc3c(F)c(-c4ccc(F)c5sc(N)nc45)c(C(F)(F)F)cc23)C1 (single isomer, unassigned) [Compound 30] measured with Avi-KRAS G12C (1-169) GppNHp/RAF1 RBD-3×FLAG (52-151) (Homo sapiens, UniProt P01116, G12C).
≤ 0.5 µM

GET IC50 where system = Avi-KRAS G12C (1-169) GppNHp/RAF1 RBD-3×FLAG (52-151) (Homo sapiens, UniProt P01116, G12C) and item = C=CC(=O)N1CC[C@@H](Oc2nc(OC[C@@]34CCCN3C[C@H](F)C4)nc3cc(-c4ccc(F)c5sc(N)c(C#N)c45)c(F)cc23)[C@@H]1C
5 to 20 µM

System Avi-KRAS G12C (1-169) GppNHp/RAF1 RBD-3×FLAG (52-151) (Homo sapiens, UniProt P01116, G12C). Read-out IC50. Item C=CC(=O)N1CC[C@@H](Oc2nc(OC[C@@]34CCCN3C[C@H](F)C4)nc3c(F)c(-c4ccc(F)c5sc(N)c(C#N)c45)ccc23)[C@@H]1COC . Report value.
> 20 µM

###

# measured-target: Avi-KRAS G12C (1-169) GppNHp/RAF1 RBD-3×FLAG (52-151) (Homo sapiens, UniProt P01116, G12C)
# Construct: Avi-KRAS G12C (1-169) GppNHp/RAF1 RBD-3×FLAG (52-151)
# test: Raf1 RBD-KRAS G12C-GppNHp disruption (protein:protein interaction HTRF assay)
# Experimental: A protein: protein (PPI) interaction Homogeneous Time Resolved Fluorescence (HTRF) assay was used to determine the effectiveness of compounds of the present disclosure in disrupting KRAS G12C protein and effector (RAF1 or PIK3CA) binding. […] Plates were analyzed on an Envision plate reader using the following setting: Excitation 320 nm, Bandwidth 75 nm; Emission 615 nm, Bandwidth 85 nm; Gain 100%; Flashes 100; Lag 60 μs. […] Data was plotted and analyzed using Prism 8.
reported-metric: IC50

Below, each entry is followed by its recorded IC50 result.
{"compound": "C=CC(=O)N1CC[C@@H](Oc2nc(OC[C@@]34CCCN3C[C@H](OC)C4)nc3cc(-c4ccc(F)c5sc(N)c(C#N)c45)c(C(F)(F)F)cc23)[C@H]1C", "IC50": "≤ 0.5 µM"}
{"compound": "C=CC(=O)N1C[C@H](Oc2nc(OC[C@@]34CCCN3C[C@H](F)C4)nc3c(F)c(-c4ccc(F)c5sc(N)c(C#N)c45)c(C(F)(F)F)cc23)C[C@H]1COC (atropisomer, axis not shown) [Compound 90]", "IC50": "> 20 µM"}
{"compound": "C=CC(=O)N1CC[C@H](Oc2nc(OC[C@@]34CCCN3C[C@H](F)C4)nc3c(F)c(-c4ccc(F)c5sc(N)nc45)c(C(F)(F)F)cc23)C1 (atropisomer, axis not shown) [Compound 5]", "IC50": "5 to 20 µM"}
{"compound": "C=CC(=O)N1CC[C@@H](Oc2nc(OC[C@@]34CCCN3C[C@H](F)C4)nc3cc(-c4ccc(F)c5sc(N)c(C#N)c45)c(C#N)cc23)[C@H]1COC", "IC50": "≤ 0.5 µM"}
{"compound": "C=CC(=O)N1C[C@H](Oc2nc(OC[C@@]34CCCN3C[C@H](F)C4)nc3c(F)c(-c4ccc(F)c5sc(N)nc45)c(C(F)(F)F)cc23)C[C@@H]1C (atropisomer, axis not shown) [Compound 33]", "IC50": "5 to 20 µM"}
{"compound": "C=CC(=O)N1CC[C@@H](Oc2nc(OC[C@@]34CCCN3C[C@H](F)C4)nc3c(Cl)c(-c4ccc(F)c5sc(N)c(C#N)c45)ncc23)[C@@H]1COC", "IC50": "≤ 0.5 µM"}
{"compound": "C=CC(=O)N1C[C@@H](F)[C@@H](Oc2nc(OC[C@@]34CCCN3C[C@H](F)C4)nc3c(F)c(-c4ccc(F)c5sc(N)c(C#N)c45)ccc23)C1", "IC50": "≤ 0.5 µM"}
{"compound": "C=CC(=O)N1C[C@H](Oc2nc(OC[C@@]34CCCN3C[C@H](F)C4)nc3c(F)c(-c4ccc(F)c5sc(N)nc45)c(C(F)(F)F)cc23)C[C@H]1C (atropisomer, axis not shown) [Compound 38]", "IC50": "0.5 to 5 µM"}

Specify reported IC50 for the compound shown: C=CC(=O)N1CC[C@@H](Oc2nc(OC[C@@]34CCCN3C[C@H](F)C4)nc3c(F)c(-c4ccc(F)c5sc(N)c(C#N)c45)c(F)cc23)C1
5 to 20 µM

// Input: C=CC(=O)N1CC[C@@H](Oc2nc(OC[C@@]34CCCN3C[C@H](F)C4)nc3c(F)c(-c4ccc(F)c5sc(N)c(C#N)c45)c(C(F)(F)F)cc23)[C@H]1C (single isomer, unassigned) [Compound 64] . Output its IC50 only.
> 20 µM
